tested on: MCF7; test: normalised growth rate inhibition (GR value) relative to DMSO control (GR (1 = untreated growth, 0 = cytostasis, <0 = cytotoxic)); higher = less growth inhibition; conditions: 3.33 µM; 72 h
Field: normalised growth rate inhibition. Provide a value for each of the molecules that follow.
Kindly provide the number alone.

## Input Bench note: what normalised growth rate inhibition did `CCOc1cc2ncc(C#N)c(Nc3ccc(F)c(Cl)c3)c2cc1NC(=O)/C=C/CN(C)C` show?
## Output 0.33

## Input Bench note: what normalised growth rate inhibition did `Nc1ccc(C(=O)Nc2cccc(-c3nc(N4CCOCC4)c4oc5ncccc5c4n3)c2)cn1` show?
## Output 0.37

## Input Bench note: what normalised growth rate inhibition did `CCc1cc(Nc2nccc(-c3c(-c4ccc(OC)c(C(=O)Nc5c(F)cccc5F)c4)nc4ccccn34)n2)c(OC)cc1N1CCC(N2CCN(S(C)(=O)=O)CC2)CC1` show?
## Output 0.358

## Input Bench note: what normalised growth rate inhibition did `Cc1cc(C(=O)NOCCO)c(Nc2ccc(I)cc2F)n(C)c1=O` show?
## Output 0.405

## Input Bench note: what normalised growth rate inhibition did `c1ccc2c(-c3cnn4cc(-c5ccc(N6CCNCC6)cc5)cnc34)ccnc2c1` show?
## Output 0.258

## Input Bench note: what normalised growth rate inhibition did `C=CC(=O)Nc1cc(-n2c(=O)ccc3cnc4ccc(-c5cn[nH]c5)cc4c32)ccc1C` show?
## Output 0.145

## Input Bench note: what normalised growth rate inhibition did `Cc1ccc(NC(=O)c2ccc(CN3CCN(C)CC3)cc2)cc1Nc1nccc(-c2cccnc2)n1` show?
## Output 1.04

## Input Bench note: what normalised growth rate inhibition did `CS(=O)(=O)CCNCc1ccc(-c2ccc3ncnc(Nc4ccc(OCc5cccc(F)c5)c(Cl)c4)c3c2)o1` show?
## Output 0.926

These data points were gathered from the supplement of paper PMC5662764.
